Test: Acute toxicity test, single oral intragastric administration
Type: in vivo
Settings: Sprague-Dawley, rat, in vivo, oral; male rats; read-out: maximum tolerance dose (MTD)
Experimental: In this experiment, all animals were randomly divided into 5 groups (5 animals/sex/group), received the drug at 97 mg/kg, 174 mg/kg, 312 mg/kg, 559 mg/kg, and 1000 mg/kg, respectively, and received signal intragastric administration orally. […] All animals received administration according to their latest weighed body weight. […]
METRIC NAME: MTD at 7 d (mg/kg)
Enter your answer as a number in mg/kg; do not include the unit.

Recorded result, CC[S@@](=N)(=O)C[C@H]1CC[C@H](N(C)c2ncnc3[nH]ccc23)CC1 [Free crystal form A] , MTD at 7 d: 312

###

Experiment: Pharmacokinetics of hydrochloride crystal form A in Beagle dogs
Assay type: in vivo
Conditions: dog, plasma, po; single i.g. 6 mg/kg, male Beagle dogs, mean
Counter-ions that a name gives are not always drawn.
METRIC NAME: AUC(0-t) (ng·h/mL)
Expressed in ng·h/mL, but write only the number.

For CC[S@@](=N)(=O)C[C@H]1CC[C@H](N(C)c2ncnc3[nH]ccc23)CC1 [Hydrochloride crystal form A] the compound record lists AUC(0-t) as 31700

###

Assay: Assessment of dynamic solubility
Format: physicochemical
Details: H2O and FaSSIF, 37 °C, water, thermodynamic from solid, in H2O and FaSSIF
METRIC NAME: solubility

// sample CC[S@@](=N)(=O)C[C@H]1CC[C@H](N(C)c2ncnc3[nH]ccc23)CC1 [Free crystal form A] , its solubility was 2100 to 2400 µg/mL

###

Assay: Pharmacokinetics of free crystal form A in Beagle dogs
Format: in vivo
Settings: both sexes, beagle, dog, plasma, iv, 2 mg/kg, i.v. 2 mg/kg, male and female, mean
METRIC NAME: AUC(0-t) (ng·h/mL)
# output: bare number, implied unit ng·h/mL

Summary for this compound, CC[S@@](=N)(=O)C[C@H]1CC[C@H](N(C)c2ncnc3[nH]ccc23)CC1 [Free crystal form A] : AUC(0-t) is 9940

###

Assay: Pharmacokinetics of free crystal form A in Beagle dogs
Format: in vivo
Details: both sexes, Beagle, dog, plasma, po; i.g. 2 mg/kg single, male/female mean
METRIC NAME: Cmax
Answer by giving the amount and then stating its unit.

Memo: CC[S@@](=N)(=O)C[C@H]1CC[C@H](N(C)c2ncnc3[nH]ccc23)CC1 [Free crystal form A] , reported Cmax: 1350 ng/mL

###

Assay: Pharmacokinetics of hydrochloride crystal form A in Beagle dogs
Assay type: in vivo
Conditions: dog, plasma, po; single i.g. 6 mg/kg, male Beagle dogs, mean
Where a name gives a salt, the structure may show the parent alone.
METRIC NAME: Tmax (min)
# unit: min | format: bare number

For record CC[S@@](=N)(=O)C[C@H]1CC[C@H](N(C)c2ncnc3[nH]ccc23)CC1 [Hydrochloride crystal form A] the listed Tmax is 25

###

Test: Pharmacokinetics of free crystal form A in Beagle dogs
Format: in vivo
Details: both sexes, Beagle, dog, plasma, po; i.g. 20 mg/kg single, male/female mean
METRIC NAME: half-life (h)
Please state the figure in h; there is no need to write the unit.

CC[S@@](=N)(=O)C[C@H]1CC[C@H](N(C)c2ncnc3[nH]ccc23)CC1 [Free crystal form A] yielded half-life of 4.17
